Each record here notes measured DTC Dmax (%).
System: EGFR Del19/T790M/C797S (BaF3-DTC cells)
assayRemarks: EGFR degradation HTRF assay, BaF3-DTC cells
Format: cell-based
runConditions: 16h treatment, maximum percentage of degradation
Procedure: BaF3 WT(wild type), BaF3-LTC(L858R/T790M/C797S) and BaF3-DTC(Del19/T790M/C797S) cells are treated with compounds diluted in 0.2% DMSO cell culture medium and incubate for 16h, 37° C., 5% CO2, H1975-#36, H1975-#28, H1975-#23 and HCC827 cells are treated with compounds diluted in 0.2% DMSO cell culture medium on day 2, incubate for 16h, 37° C., 5% CO2.the final concentriation of compounds in all assay is start with 10 uM, 5-fold dilution, total 8 doses were included. […]
Write your answer as a measured quantity: the number, then the unit.

Please review the following examples before continuing.
INSERT INTO assay_data (compound, observedmeasurement) VALUES
  ('CP(C)(=O)c1c(Nc2nc(Nc3ccc(N4CCN(C5CN(CCC6CCN(c7ccc(C8CCC(=O)NC8=O)c(F)c7)CC6)C5)CC4)c(F)c3)ncc2Br)ccc2nccnc12 (stereo not shown)', '92.4%'),
  ('CCc1cc(Nc2ncc(Br)c(Nc3ccc4nccnc4c3P(C)(C)=O)n2)c(OC)cc1N1CCC(N2CCN(C[C@@H]3CCN(c4ccc5c(c4)CN(C4CCC(=O)NC4=O)C5=O)C3)CC2)CC1 (stereo partly shown)', '90.55%'),
  ('CCc1cc(Nc2ncc(Br)c(Nc3ccc4nccnc4c3P(C)(C)=O)n2)c(OC)cc1N1CCC(N2CCN(CC3CN(c4ccc(C5CCC(=O)NC5=O)c(C#N)c4)C3)CC2)CC1 (stereo not shown)', '82.01%'),
  ('CCc1cc(Nc2ncc(Br)c(Nc3ccc4ncn(C)c(=O)c4c3P(C)(C)=O)n2)c(OC)cc1N1CCC(N2CCN(CCc3cc(F)c(C4CCC(=O)NC4=O)c(F)c3)CC2)CC1 (stereo not shown)', '95.35%'),
  ('CCc1cc(Nc2ncc(Br)c(Nc3ccc4nccnc4c3P(C)(C)=O)n2)c(OC)cc1N1CCC(N2CCN(CC3CN(c4ccc(C5CCC(=O)NC5=O)cc4)C3)CC2)CC1 (stereo not shown)', '76.04%'),
  ('CCc1cc(Nc2ncc(Br)c(Nc3ccc4nccnc4c3P(C)(C)=O)n2)c(OC)cc1N1CCN(C2CCN(C3CCC(c4ccc(C5CCC(=O)NC5=O)cc4)C3)CC2)CC1 (stereo not shown)', '81.18%'),
  ('CCc1cc(Nc2ncc(Br)c(Nc3ccc4nc(C)ccc4c3P(C)(C)=O)n2)c(OC)cc1N1CCC(N2CCN(CCC3CCN(c4cc(F)c(C5CCC(=O)NC5=O)c(F)c4)CC3)CC2)CC1 (stereo not shown)', '88.59%'),
  ('CCc1cc(Nc2ncc(Br)c(Nc3ccc4nc(C)ccc4c3P(C)(C)=O)n2)c(OC)cc1N1CCC(N2CCN([C@H]3C[C@@H](c4cc(F)c(C5CCC(=O)NC5=O)c(F)c4)C3)CC2)CC1 (stereo partly shown)', '94.13%'),
  ('CCc1cc(Nc2ncc(Br)c(Nc3ccc4nccnc4c3P(C)(C)=O)n2)c(OC)cc1N1CCC(N2CCN(CCC3CCN(c4ccc(C5CCC(=O)NC5=O)c(C#N)c4)CC3)CC2)CC1 (stereo not shown)', '82.04%');

Here is another compound to look at.
Task: Which measured DTC Dmax (%) belongs to CCc1cc(Nc2ncc(Br)c(Nc3ccc4nc(C)ccc4c3P(C)(C)=O)n2)c(OC)cc1N1CCC(N2CCN(C(=O)[C@@H]3CCN(c4cc(F)c(C5CCC(=O)NC5=O)c(F)c4)C3)CC2)CC1 (stereo partly shown) , tested on EGFR Del19/T790M/C797S (BaF3-DTC cells)?
Output: 97.62%

###

measurementTarget: EGFR L858R/T790M (H1975-clone #36, homozygous) (Homo sapiens, UniProt P00533, L858R/T790M)
Construct: designed to specifically target WT EGFR but preserve the L858R/T790M copy; host or cells: H1975-clone #36
Sequence (P00533 25-1210 T790M/L858R): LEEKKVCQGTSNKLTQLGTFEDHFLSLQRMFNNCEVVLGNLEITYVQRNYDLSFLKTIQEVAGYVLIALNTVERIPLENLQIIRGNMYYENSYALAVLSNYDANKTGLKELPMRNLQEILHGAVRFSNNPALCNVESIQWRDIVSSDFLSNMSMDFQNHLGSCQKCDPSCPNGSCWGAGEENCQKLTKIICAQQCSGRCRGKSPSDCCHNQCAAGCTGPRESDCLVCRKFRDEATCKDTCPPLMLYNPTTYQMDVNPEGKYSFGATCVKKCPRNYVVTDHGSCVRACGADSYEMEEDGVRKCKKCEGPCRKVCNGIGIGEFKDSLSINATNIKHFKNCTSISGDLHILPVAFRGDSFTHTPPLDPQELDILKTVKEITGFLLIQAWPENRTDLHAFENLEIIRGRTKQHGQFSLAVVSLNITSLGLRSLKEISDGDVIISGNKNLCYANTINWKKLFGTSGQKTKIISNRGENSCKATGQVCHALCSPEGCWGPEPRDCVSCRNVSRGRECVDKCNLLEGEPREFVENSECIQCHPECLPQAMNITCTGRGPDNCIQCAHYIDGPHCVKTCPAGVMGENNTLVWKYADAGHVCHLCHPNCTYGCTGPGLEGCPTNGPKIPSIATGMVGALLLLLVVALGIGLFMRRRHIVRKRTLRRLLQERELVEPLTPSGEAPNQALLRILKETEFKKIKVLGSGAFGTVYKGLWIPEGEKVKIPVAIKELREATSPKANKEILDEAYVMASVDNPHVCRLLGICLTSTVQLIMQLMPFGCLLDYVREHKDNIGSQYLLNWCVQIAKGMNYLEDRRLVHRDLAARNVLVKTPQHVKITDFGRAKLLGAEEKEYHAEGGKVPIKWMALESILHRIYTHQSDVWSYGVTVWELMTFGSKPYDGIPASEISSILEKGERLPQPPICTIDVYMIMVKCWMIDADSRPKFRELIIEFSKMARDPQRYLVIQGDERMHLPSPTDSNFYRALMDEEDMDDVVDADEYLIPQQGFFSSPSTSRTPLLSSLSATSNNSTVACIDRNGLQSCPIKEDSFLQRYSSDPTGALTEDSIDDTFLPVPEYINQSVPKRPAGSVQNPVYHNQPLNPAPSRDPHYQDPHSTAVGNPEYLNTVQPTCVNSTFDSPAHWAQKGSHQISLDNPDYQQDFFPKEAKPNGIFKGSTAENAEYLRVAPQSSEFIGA
assayRemarks: EGFR degradation HTRF assay, H1975-clone #36 cells
Format: cell-based
runConditions: NCI-H1975; H1975 #36, 16h treatment, maximum percentage of degradation
The threshold is inclusive: Dmax of exactly 70% counts as label 1; values below receive label 0.

INSERT INTO measurements (compound, category) VALUES
  ('COc1cc(N2CCN(C3CN(C(=O)c4cnc(C(=O)Nc5ccc(C6CCC(=O)NC6=O)cc5)cn4)C3)CC2)ccc1Nc1ncc(Cl)c(Nc2ccccc2P(C)(C)=O)n1 (centres unmarked)', 'label 0'),
  ('COc1cc(N2CCC(N(C)CCCOc3ccc(N4CCC(=O)NC4=O)cc3)CC2)c(C)cc1Nc1ncc(Br)c(Nc2ccc3nccnc3c2P(C)(C)=O)n1', 'label 0'),
  ('CCc1cc(Nc2ncc(Br)c(Nc3ccc4nccnc4c3P(C)(C)=O)n2)c(OC)cc1N1CCC(N2CCN(CCC3CN(c4ccc5c(c4)C(=O)N(C4CCC(=O)NC4=O)C5=O)C3)CC2)CC1 (centres unmarked)', 'label 1');

Proceed to the following item.
Task: Dmax >= 70% for CCc1cc(Nc2ncc(Br)c(Nc3ccc4nccnc4c3P(C)(C)=O)n2)c(OC)cc1N1CCC(N2CCN(C(=O)C3CN(c4ccc5c(c4)C(=O)N(C4CCC(=O)NC4=O)C5=O)C3)CC2)CC1 (centres unmarked) ?
Output: label 1

###

measurementTarget: EGFR L858R/T790M/C797S (BaF3-LTC cells) (Homo sapiens, UniProt P00533, C797S/L858R/T790M)
Construct: expressed in transfected cells; host or cells: BaF3
Sequence (P00533 25-1210 T790M/C797S/L858R): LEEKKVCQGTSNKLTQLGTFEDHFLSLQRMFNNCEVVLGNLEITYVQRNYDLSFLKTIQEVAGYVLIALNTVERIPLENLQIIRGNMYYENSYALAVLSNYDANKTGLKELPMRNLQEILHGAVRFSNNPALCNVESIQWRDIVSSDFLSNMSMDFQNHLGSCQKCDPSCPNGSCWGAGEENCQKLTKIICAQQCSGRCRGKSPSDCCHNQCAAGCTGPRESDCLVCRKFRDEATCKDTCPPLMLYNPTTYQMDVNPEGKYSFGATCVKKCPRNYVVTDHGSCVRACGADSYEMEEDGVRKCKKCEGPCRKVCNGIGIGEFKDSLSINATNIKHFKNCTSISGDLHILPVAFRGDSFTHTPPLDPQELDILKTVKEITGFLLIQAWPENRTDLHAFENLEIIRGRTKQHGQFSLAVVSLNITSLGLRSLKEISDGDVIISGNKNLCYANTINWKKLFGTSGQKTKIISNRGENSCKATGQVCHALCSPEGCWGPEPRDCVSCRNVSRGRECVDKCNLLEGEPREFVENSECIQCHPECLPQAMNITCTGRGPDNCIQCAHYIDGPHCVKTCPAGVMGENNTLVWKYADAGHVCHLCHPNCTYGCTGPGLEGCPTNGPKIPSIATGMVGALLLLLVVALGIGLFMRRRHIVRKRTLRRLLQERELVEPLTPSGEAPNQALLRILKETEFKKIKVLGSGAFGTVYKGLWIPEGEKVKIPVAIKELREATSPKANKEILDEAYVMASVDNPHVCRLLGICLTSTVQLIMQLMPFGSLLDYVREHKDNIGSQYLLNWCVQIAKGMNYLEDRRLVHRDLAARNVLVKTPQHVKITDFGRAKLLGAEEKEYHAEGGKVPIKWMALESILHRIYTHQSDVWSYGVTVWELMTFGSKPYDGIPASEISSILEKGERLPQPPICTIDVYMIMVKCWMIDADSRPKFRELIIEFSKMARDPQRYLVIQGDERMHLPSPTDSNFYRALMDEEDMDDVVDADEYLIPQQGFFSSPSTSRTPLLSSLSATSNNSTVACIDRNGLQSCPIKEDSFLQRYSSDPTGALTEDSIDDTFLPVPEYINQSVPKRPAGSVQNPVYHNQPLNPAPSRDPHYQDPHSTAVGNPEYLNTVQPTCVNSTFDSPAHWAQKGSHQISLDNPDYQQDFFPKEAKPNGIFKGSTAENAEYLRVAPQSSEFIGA
assayRemarks: EGFR degradation HTRF assay, BaF3-LTC cells
Format: cell-based
runConditions: BaF3-LTC, 16h treatment, maximum percentage of degradation; read-out: LTC Dmax (%)
valueKind: Dmax (%)
Give the value, in units of %, as a plain number.

Task: Please report the recorded Dmax for CCc1cc(Nc2ncc(Br)c(Nc3ccc4nccnc4c3P(C)(C)=O)n2)c(OC)cc1N1CCC(N2CCN(C(=O)C3CCN(CC4CCN(c5ccc6c(c5)C(=O)N(C5CCC(=O)NC5=O)C6=O)CC4)CC3)CC2)CC1 (centres unmarked) [Example 63] .
Output: 38.5

###

measurementTarget: EGFR L858R/T790M/C797S (BaF3-LTC cells) (Homo sapiens, UniProt P00533, C797S/L858R/T790M)
Construct: expressed in transfected cells; host or cells: BaF3
assayRemarks: EGFR degradation HTRF assay, BaF3-LTC cells
Type: cell-based
runConditions: BaF3-LTC cells; maximum percentage of inhibition (degradation); read-out: Dmax (%) BaF3-LTC
valueKind: Dmax (%)
The answer is to be given in %; state only the numeric part.

Worked examples follow.
INSERT INTO results (molecule, measurementtarget, valuekind, observedmeasurement) VALUES
  ('CCc1cc(Nc2ncc(Br)c(Nc3ccc4nc(C)ccc4c3P(C)(C)=O)n2)c(OC)cc1N1CCC(N2CCN(CCC3CCN(c4cc(F)c(C5CCC(=O)NC5=O)c(F)c4)CC3)C(=O)C2)CC1 (stereo not shown) [Example 695]', 'EGFR L858R/T790M/C797S (BaF3-LTC cells) (Homo sapiens, UniProt P00533, C797S/L858R/T790M)', 'Dmax', 93.5),
  ('CCOc1cc(N2CCC(N3CCN(CCCc4cc(OC)cc5c4oc(=O)n5C4CCC(=O)NC4=O)CC3)CC2)c(CC)cc1Nc1ncc(Br)c(Nc2ccc3nc(CC)ccc3c2P(C)(C)=O)n1 (stereo not shown) [Example 597]', 'EGFR L858R/T790M/C797S (BaF3-LTC cells) (Homo sapiens, UniProt P00533, C797S/L858R/T790M)', 'Dmax', 90.1),
  ('CCOc1cc(N2CCC(N3CCN(CCc4ccc(C)c5c4oc(=O)n5C4CCC(=O)NC4=O)CC3)CC2)c(CC)cc1Nc1ncc(Br)c(Nc2ccc3nc(CC)ccc3c2P(C)(C)=O)n1 (stereo not shown) [Example 470]', 'EGFR L858R/T790M/C797S (BaF3-LTC cells) (Homo sapiens, UniProt P00533, C797S/L858R/T790M)', 'Dmax', 80.5),
  ('CCOc1cc(N2CCC(N3CCN(CCc4cc5oc(=O)n(C6CCC(=O)NC6=O)c5cc4Cl)CC3)CC2)c(CC)cc1Nc1ncc(Br)c(Nc2ccc3c(=O)n(CC)ncc3c2P(C)(C)=O)n1 (stereo not shown) [Example 626]', 'EGFR L858R/T790M/C797S (BaF3-LTC cells) (Homo sapiens, UniProt P00533, C797S/L858R/T790M)', 'Dmax', 91),
  ('CCOc1cc(N2CCC(N3CCN(CCc4c(F)ccc5c4n(C)c(=O)n5C4CCC(=O)NC4=O)CC3)CC2)c(CC)cc1Nc1ncc(Br)c(Nc2ccc3nc(CC)ccc3c2P(C)(C)=O)n1 (stereo not shown) [Example 648]', 'EGFR L858R/T790M/C797S (BaF3-LTC cells) (Homo sapiens, UniProt P00533, C797S/L858R/T790M)', 'Dmax', 95.8),
  ('CCOc1cc(N2CCC(N3CCN(CCCc4cc(Cl)cc5c4oc(=O)n5C4CCC(=O)NC4=O)CC3)CC2)c(CC)cc1Nc1ncc(Br)c(Nc2ccc3nc(CC)ccc3c2P(C)(C)=O)n1 (stereo not shown) [Example 726]', 'EGFR L858R/T790M/C797S (BaF3-LTC cells) (Homo sapiens, UniProt P00533, C797S/L858R/T790M)', 'Dmax', 96.7);

Task: Entry under review: CCc1cc(Nc2ncc(Br)c(Nc3ccc4nc(C)ccc4c3P(C)(C)=O)n2)c(OC)cc1N1CCC(N2CCN(CCc3cccc4c3oc(=O)n4C3CCC(=O)NC3=O)CC2)CC1 (stereo not shown) [Example 506] . Reported Dmax?
Output: 93

Task: Another molecule: CCc1cc(Nc2ncc(Br)c(Nc3ccc4nc(C)ccc4c3P(C)(C)=O)n2)c(OC)cc1N1CCC(N2CCN(CCC3CN(c4cccc5c4CN(C4CCC(=O)NC4=O)C5=O)C3)CC2)CC1 (stereo not shown) [Example 692]
Output: 91.4

Task: Then this molecule: CCc1cc(Nc2ncc(Br)c(Nc3ccc4nc(C)sc4c3P(C)(C)=O)n2)c(OC)cc1N1CCC(N2CCN(CCc3cc(F)c(C4CCC(=O)NC4=O)c(F)c3)CC2)CC1 (stereo not shown) [Example 666]
Output: 93.2

Task: Similarly, CCOc1cc(N2CCC(N3CCN(CCCc4cc(OC)cc5c4oc(=O)n5C4CCC(=O)NC4=O)CC3)CC2)c(CC)cc1Nc1ncc(Br)c(Nc2ccc3c(=O)n(CC)ncc3c2P(C)(C)=O)n1 (stereo not shown) [Example 598] ?
Output: 88.4
